Values compiled from paper PMC5601235.

experiment: Preclinical PET biodistribution of [^18F]FPCA‐F9 solution after tail‐vein injection; assay type: in vivo, C3H mice; conditions: C3H, mouse, liver, iv, 13 MBq, total radioactivity, i.v. tail vein, 20 minutes postinjection, n = 4, read-out: Liver uptake
Where a SMILES comes first, the peptide text is derived from it. The star is where a group is joined. X1 = O=C(CO/N=C/c1cccnc1F)*

>  <COMPOUND>
NCCCC[C@H](NC(=O)[C@H](CCCCN)NC(=O)[C@H](Cc1ccccc1)NC(=O)[C@H](CCC(=O)O)NC(=O)[C@H](Cc1ccccc1)NC(=O)[C@H](CCCCN)NC(=O)[C@H](Cc1ccccc1)NC(=O)[C@H](CCC(=O)O)NC(=O)[C@H](Cc1ccccc1)NC(=O)CO/N=C/c1cccnc1F)C(=O)O [[^18F]FPCA‐F9] (X1-FEFKFEFKK-OH)

>  <SUV at 20 min [SUV]>
0.7

$$$$
